Field: pKd. Provide a value for each of the compounds that follow.
// scale note: pKd = -log10(conc_M); give the bare number

Tested on PB2 cap binding domain (CBD) of an avian H5N1 influenza virus (Influenza A virus): CC(C)N1CCn2c(CNC(=O)c3cccc(Nc4nccc5[nH]ncc45)c3)cc(=O)c(O)c2C1=O . Observed pKd: 4.01

Tested on PB2 cap binding domain (CBD) of an avian H5N1 influenza virus (Influenza A virus): CC(C)N1CCn2c(CNC(=O)CCCCCNc3nc(-c4n[nH]c5ncc(F)cc45)ncc3F)cc(=O)c(O)c2C1=O . Observed pKd: 6.38

Tested on PB2 cap binding domain (CBD) of an avian H5N1 influenza virus (Influenza A virus): CC(C)N1CCn2c(CNC(=O)[C@@H](Cc3cccc(Cl)c3)NC(=O)c3n[nH]c4ncccc34)cc(=O)c(O)c2C1=O . Observed pKd: 4.26

----------
Biological target: influenza A virus (IAV) PA-Nter fragment (amino acids 1-209) (Influenza A virus, UniProt P31343)
Endpoint Label: IC50 (nM)
Quick note: give the figure in nM, leave out the unit.

// recorded IC50 for CC(C)N1CCn2c(CNC(=O)CNC(=O)c3ccc4n[nH]c(=O)n4c3)cc(=O)c(O)c2C1=O : 1940

// recorded IC50 for CC(C)N1CCn2c(CNC(=O)CCCCCNC(=O)c3c[nH]c4ncc(C5CC5)nc34)cc(=O)c(O)c2C1=O : 570

// recorded IC50 for CC(C)N1CCn2c(CNC(=O)c3ccc4n[nH]c(=O)n4c3)cc(=O)c(O)c2C1=O : 870

// recorded IC50 for CC(C)N1CCn2c(CNCCNc3cc4[nH]ccc4c(Cl)n3)cc(=O)c(O)c2C1=O : 580

// recorded IC50 for CC(C)N1CCn2c(CNC(=O)CC(Nc3nc(-c4n[nH]c5ncc(F)cc45)ncc3F)C3CC3)cc(=O)c(O)c2C1=O (centres unmarked) : 19700

// recorded IC50 for CCC(Nc1nc(-c2n[nH]c3ncc(F)cc23)ncc1F)C(=O)NCc1cc(=O)c(O)c2n1CCN(C(C)C)C2=O (centres unmarked) : 12200

// recorded IC50 for CC(C)N1CCn2c(COC(=O)c3c[nH]c4ncc(C5CC5)nc34)cc(=O)c(O)c2C1=O : 490

// recorded IC50 for CC(C)N1CCn2c(CNC(=O)[C@H](NC(=O)c3cccn4c(=O)[nH]nc34)c3ccccc3)cc(=O)c(O)c2C1=O : 9870

// recorded IC50 for CC(C)N1CCn2c(CNC(=O)c3cccn4c(=O)[nH]nc34)cc(=O)c(O)c2C1=O : 280

// recorded IC50 for CC(C)N1CCn2c(CNc3nccc4[nH]ncc34)cc(=O)c(O)c2C1=O : 400

// recorded IC50 for CC(C)N1CCn2c(CNC(=O)[C@H](NC(=O)c3c[nH]c4ncc(C5CC5)nc34)c3ccccc3)cc(=O)c(O)c2C1=O : 2340

// recorded IC50 for CC(C)N1CCn2c(CNCCOC(=O)c3cccn4c(=O)[nH]nc34)cc(=O)c(O)c2C1=O : 1410

// recorded IC50 for CCC(NC(=O)c1c[nH]c2ncc(C3CC3)nc12)C(=O)NCc1cc(=O)c(O)c2n1CCN(C(C)C)C2=O (centres unmarked) : 460

// recorded IC50 for CC(C)N1CCn2c(CNC(=O)c3c[nH]c4ncc(C5CC5)nc34)cc(=O)c(O)c2C1=O : 870

// recorded IC50 for CC(C)N1CCn2c(CNC(=O)c3cccc(NC(=O)c4n[nH]c5ncccc45)c3)cc(=O)c(O)c2C1=O [drawing 29] : 1220

// recorded IC50 for CC(C)N1CCn2c(CNC(=O)[C@H](NC(=O)c3ccc4n[nH]c(=O)n4c3)c3ccccc3)cc(=O)c(O)c2C1=O : 1450
